# Test protocol: Water solubility at room temperature of 1:1 co-crystals of the compound of the formula 1 with co-crystal formers
# Experimental context: co-crystal at 1:1 molar ratio with compound of the formula 1
Reported endpoint: Water-solubility (µg/mL)
I only need the number, in µg/mL, no unit after it.

Inquiry: I have this compound here, CC(C)C[C@H](N)C(=O)O [L-leucine] , and I need its recorded Water-solubility.
Reply text: 12000

Inquiry: I have this compound here, CC(C)[C@H](N)C(=O)O [L-Valine] , and I need its recorded Water-solubility.
Reply text: 3000

Inquiry: I have this compound here, NCCCC[C@H](N)C(=O)O [L-Lysine] , and I need its recorded Water-solubility.
Reply text: 8000

Inquiry: I have this compound here, C[C@H](N)C(=O)O [L-Alanine] , and I need its recorded Water-solubility.
Reply text: 4000

###

For each entry below, report its solubility value.
# Test protocol: Comparative test on solubility of amorphous acid addition salts (supersaturation method)
# Experimental context: water, thermodynamic from solid, Water solubility, room temperature, solubility of acid addition salt per se, not converted to free base

Inquiry: I have this compound here, Cc1nc2c(O[C@H]3CCOc4cc(F)cc(F)c43)cc(C(=O)N(C)C)cc2[nH]1 , and I need its recorded solubility.
Reply text: ≥ 50000 µg/mL

Inquiry: I have this compound here, Cc1nc2c(OC3CCOc4cc(F)cc(F)c43)cc(C(=O)N(C)C)cc2[nH]1 (centres unmarked) [Amorphous free base] , and I need its recorded solubility.
Reply text: 3000 µg/mL
